Hi there, I'd appreciate the recorded ECmax (−fold induction over basal) for every entry that follows.
Molecular target: GPR39 (Homo sapiens, UniProt O43194)
Sequence (O43194 1-453): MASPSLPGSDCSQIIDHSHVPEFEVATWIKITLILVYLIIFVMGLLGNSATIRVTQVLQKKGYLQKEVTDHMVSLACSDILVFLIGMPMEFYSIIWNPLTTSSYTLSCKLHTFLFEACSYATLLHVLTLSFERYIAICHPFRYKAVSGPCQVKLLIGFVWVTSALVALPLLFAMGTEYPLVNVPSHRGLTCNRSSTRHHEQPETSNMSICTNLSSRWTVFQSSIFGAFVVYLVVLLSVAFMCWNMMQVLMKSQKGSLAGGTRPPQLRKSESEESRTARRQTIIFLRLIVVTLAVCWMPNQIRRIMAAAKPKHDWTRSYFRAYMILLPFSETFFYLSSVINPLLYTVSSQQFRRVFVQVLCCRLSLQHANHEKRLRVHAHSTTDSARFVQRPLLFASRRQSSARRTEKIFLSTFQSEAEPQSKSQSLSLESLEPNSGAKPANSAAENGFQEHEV
Experiment: luciferase assay system (SRE luciferase reporter gene, CV-1 cells expressing GPR39)
Type: cell-based
Set-up: expressed in transfected cells; host or cells: CV-1 fibroblast cell line (Korea Cell Line Bank), adenoviral transduction at 50 MOI
Square brackets hold non-standard residues; d marks the D form. Peptide text beside a SMILES is read from it. * marks the point of attachment. His(Trt) = N[C@@H](Cc1cn(C(c2ccccc2)(c2ccccc2)c2ccccc2)cn1)C(=O)O; His(τ-CHPh2) = N[C@@H](Cc1cn(C(c2ccccc2)c2ccccc2)cn1)C(=O)O; Tyr(3-Cl) = N[C@@H](Cc1ccc(O)c(Cl)c1)C(=O)O; dPhe(4-Me) = Cc1ccc(C[C@@H](N)C(=O)O)cc1; Octanoyl = CCCCCCCC(=O)*; Orn = NCCC[C@H](N)C(=O)O

Field: example entries. Status: answers known.
>>> experimental_result("CCCCCCCC(=O)NCCCC[C@H](NC(=O)[C@@H](N)Cc1cn(C(c2ccccc2)c2ccccc2)cn1)C(=O)N[C@H](Cc1ccc(C)cc1)C(=O)N[C@@H](Cc1ccc(O)c(Cl)c1)C(=O)O [HKFY-67] (H-[His(τ-CHPh2)]K(Octanoyl)[dPhe(4-Me)][Tyr(3-Cl)]-OH)")
"10.2 ± 1.51 fold induction over basal"
>>> experimental_result("CCCCCCCC(=O)NCCC[C@H](NC(=O)[C@@H](N)Cc1cn(C(c2ccccc2)c2ccccc2)cn1)C(=O)N[C@H](Cc1ccc(C)cc1)C(=O)N[C@@H](Cc1ccc(O)cc1)C(=O)O [HKFY-71] (H-[His(τ-CHPh2)][Orn](Octanoyl)[dPhe(4-Me)]Y-OH)")
"16.4 ± 2.51 fold induction over basal"
>>> experimental_result("CCCCCCCC(=O)NCCCC[C@H](NC(=O)[C@@H](N)CC1=CN(CCc2ccccc2)CN1CCc1ccccc1)C(=O)N[C@@H](Cc1ccccc1)C(=O)N[C@@H](Cc1ccc(O)cc1)C(=O)O")
"15 ± 2.12 fold induction over basal"

List ECmax (−fold induction over basal) for every entry below, keeping the order given.
1. CCCCCCCC(=O)NCCCC[C@H](NC(=O)[C@@H](N)Cc1cn(C(c2ccccc2)c2ccccc2)cn1)C(=O)N[C@@H](Cc1ccccc1)C(=O)N[C@@H](Cc1ccc(O)cc1)C(=O)O [HKFY-33] (H-[His(τ-CHPh2)]K(Octanoyl)FY-OH)
2. CCCCCCCC(=O)NCCCC[C@H](NC(=O)[C@@H](N)Cc1cn(C(c2ccccc2)(c2ccccc2)c2ccccc2)cn1)C(=O)N[C@@H](Cc1ccccc1)C(=O)N[C@@H](Cc1ccc(O)cc1)C(=O)N[C@@H](CO)C(=O)N[C@@H](Cc1c[nH]cn1)C(=O)N[C@@H](CCC(N)=O)C(=O)N[C@@H](CCC(N)=O)C(=O)N[C@@H](C)C(=O)N[C@@H](CCCNC(=N)N)C(=O)N[C@@H](Cc1ccccc1)C(N)=O [HKFY-40] (H-[His(Trt)]K(Octanoyl)FYSHQQARF-NH2)
3. CCCCCCCC(=O)NCCCC[C@H](NC(=O)[C@@H](N)CC1=CNCN1CCC1CCCCC1)C(=O)N[C@@H](Cc1ccccc1)C(=O)N[C@@H](Cc1ccc(O)cc1)C(=O)O

["20 ± 0.57 fold induction over basal", "13.4 ± 0.02 fold induction over basal", "16 ± 2.2 fold induction over basal"]

List ECmax (−fold induction over basal) for every entry below, keeping the order given.
1. CCCCCCCC(=O)NCCCC[C@H](NC(=O)[C@@H](N)Cc1cn(C(c2ccccc2)(c2ccccc2)c2ccccc2)cn1)C(=O)N[C@H](Cc1ccc(C)cc1)C(=O)N[C@@H](Cc1ccc(O)cc1)C(=O)O [HKFY-30] (H-[His(Trt)]K(Octanoyl)[dPhe(4-Me)]Y-OH)
2. CCCCCCCC(=O)NCCCC[C@H](NC(=O)[C@@H](N)Cc1cn(C(c2ccccc2)(c2ccccc2)c2ccccc2)cn1)C(=O)N[C@@H](CC(C)C)C(=O)N[C@@H](Cc1ccc(O)cc1)C(=O)O [HKFY-51] (H-[His(Trt)]K(Octanoyl)LY-OH)

1. 23.88 ± 3.04 fold induction over basal
2. 14.4 ± 1.9 fold induction over basal
